Data provenance: paper PMC8967248

# testedSystem: GUN4 (AtGUN4) (Arabidopsis thaliana, UniProt Q9LX31, F191A)
# Construct: 6xHis-tagged, pQE80_AtGUN4(WT), expressed in and purified from E. coli
# Sequence (Q9LX31 70-265 F191A): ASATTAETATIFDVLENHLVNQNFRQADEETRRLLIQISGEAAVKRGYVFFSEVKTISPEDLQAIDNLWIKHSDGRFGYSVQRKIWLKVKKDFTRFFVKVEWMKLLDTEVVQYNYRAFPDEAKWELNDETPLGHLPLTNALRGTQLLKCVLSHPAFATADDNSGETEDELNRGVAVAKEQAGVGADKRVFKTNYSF
# assayText: tryptophan fluorescence quenching
# Assay type: binding
# assayConditions: read-out: apparent Kd
quantityKind: pKd
Recall that pKd is obtained by taking minus log10 of the concentration measured in molar.

Prompt: Tell me pKd reported for C=CC1=C(C)c2cc3[nH]c(cc4nc(cc5[nH]c(cc1n2)c(C)c5CCC(=O)O)C(CCC(=O)O)=C4C)c(C)c3C=C
Response: 5.68
